target: human serum albumin (human) (UniProt P02768); test: screening ELISA
Sequence (P02768 25-609 limits assumed): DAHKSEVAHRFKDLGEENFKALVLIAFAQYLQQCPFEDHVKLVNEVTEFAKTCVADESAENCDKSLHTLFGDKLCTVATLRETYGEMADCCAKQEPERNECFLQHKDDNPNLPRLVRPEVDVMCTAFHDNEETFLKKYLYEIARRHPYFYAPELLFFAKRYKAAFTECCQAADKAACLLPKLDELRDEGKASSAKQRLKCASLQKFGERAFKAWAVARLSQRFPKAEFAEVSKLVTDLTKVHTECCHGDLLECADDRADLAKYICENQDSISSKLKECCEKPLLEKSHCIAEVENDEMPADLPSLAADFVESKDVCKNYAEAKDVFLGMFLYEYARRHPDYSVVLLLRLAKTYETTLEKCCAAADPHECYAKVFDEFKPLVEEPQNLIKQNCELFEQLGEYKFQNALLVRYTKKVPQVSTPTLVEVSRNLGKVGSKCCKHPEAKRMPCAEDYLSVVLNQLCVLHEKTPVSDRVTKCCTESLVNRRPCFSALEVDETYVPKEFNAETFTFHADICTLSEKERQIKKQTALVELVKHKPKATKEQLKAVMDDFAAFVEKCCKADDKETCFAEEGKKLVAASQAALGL
measured-quantity: HSA

{"columns": ["binder", "HSA"],
 "data": [
  ["SEQ ID NO 277 (designed binder) MLPAPKNLVVSRVTEDSARLSWTAPDAAFDSFWINYYEGIGEGEAIVLTVPGSERSYDLTGLKPGTEYYVDISGVKGGSYSLPLSAIFTT", 5200],
  ["SEQ ID NO 295 (designed binder) MLPAPKNLVVSRVTEDSARLSWTAPDAAFDSFFIGYLEPIPSGEAIVLTVPGSERSYDLTGLKPGTEYPVVIQGVKGGHPSQPLSAIFTT", 3800]
]}
